Quick reference: log10(IC50) of the listed items.
tested on: human colon adenocarcinoma cell line (LoVo); assay: cells; type: cell-based; conditions: Homo sapiens, LoVo, 72 h, read-out: IC50 LoVo
The figures below represent log10 of IC50, where IC50 is stated in nM.

Fill: log10(IC50) (human colon adenocarcinoma cell line (LoVo)) for this compound COc1c(Br)c2c(c(OC)c1OC)-c1ccc(SC)c(=O)cc1[C@@H](NC(=O)OCCO)CC2
1.87

Give measured log10(IC50) for COc1c(Br)c2c(c(OC)c1OC)-c1ccc(SC)c(=O)cc1[C@@H](NC(=O)OCC(F)(F)F)CC2 (human colon adenocarcinoma cell line (LoVo)).
1.26

***
State log10(IC50) (human colon adenocarcinoma cell line (LoVo)) of COc1c(Br)c2c(c(OC)c1OC)-c1ccc(SC)c(=O)cc1[C@@H](NC(=O)OC(C)C)CC2 .
1.73

Report value only: log10(IC50), human colon adenocarcinoma cell line (LoVo), COC(=O)N[C@H]1CCc2c(Br)c(OC)c(OC)c(OC)c2-c2ccc(SC)c(=O)cc21
0.85

* * *

test system: doxorubicin-resistant human colon adenocarcinoma subline (LoVo/DX); assay: cells; format: cell-based; conditions: SI = IC50 BALB/3T3 / IC50 LoVo/DX
Short version: SI LoVo/DX at least 0.7 is True, less is False.

Known results for molecules:
Dear colleague, could you confirm whether COc1c(Br)c2c(c(OC)c1OC)-c1ccc(SC)c(=O)cc1[C@@H](NC(C)=O)CC2 [Compound 3, 4-bromothiocolchicine] has SI LoVo/DX at or above 0.7?
True

Check if SI LoVo/DX >= 0.7 (inclusive). Item: COc1c(Br)c2c(c(OC)c1OC)-c1ccc(SC)c(=O)cc1[C@@H](NC(=O)OCCO)CC2 [Compound 5]
False

Entry COc1c(Br)c2c(c(OC)c1OC)-c1ccc(SC)c(=O)cc1[C@@H](NC(=O)OCCOCCO)CC2 [Compound 12] : is its SI LoVo/DX no less than 0.7?
False

Textbook exercise: given the entry CCCOC(=O)N[C@H]1CCc2c(Br)c(OC)c(OC)c(OC)c2-c2ccc(SC)c(=O)cc21 [Compound 9] , state whether its SI LoVo/DX is greater than or equal to 0.7.
True

Decide: SI LoVo/DX of COc1c(Br)c2c(c(OC)c1OC)-c1ccc(SC)c(=O)cc1[C@@H](NC(=O)OCC(F)(F)F)CC2 [Compound 8] >= 0.7?
True

More entries:
Hello, I need to know if CCOC(=O)N[C@H]1CCc2c(Br)c(OC)c(OC)c(OC)c2-c2ccc(SC)c(=O)cc21 [Compound 7] has measured SI LoVo/DX not below 0.7. Thanks!
True

* * *

Test system: doxorubicin-resistant human colon adenocarcinoma subline (LoVo/DX)
Assay: cells
Format: cell-based
Details: RI = IC50 LoVo/DX / IC50 LoVo
Protocol: The BALB/3T3 cell line was purchased from the American Type Culture Collection (ATCC, Manassas, VA, USA), A549 and MCF-7 cell lines—from European Collection of Authenticated Cell Cultures (Salisbury, UK). […] IC50 values were calculated in Cheburator 0.4, Dmitry Nevozhay software (version 1.2.0 software by Dmitry Nevozhay, 2004–2014, http://www.cheburator.nevozhay.com, freely available) for each experiment. […]
Given measured RI (resistance index), output Yes if it is greater than or equal to 6 and No if not.

Does the reported RI (resistance index) for CCCOC(=O)N[C@H]1CCc2c(Br)c(OC)c(OC)c(OC)c2-c2ccc(SC)c(=O)cc21 fall at or above the 6 mark?
Yes

Does COc1c(Br)c2c(c(OC)c1OC)-c1ccc(SC)c(=O)cc1[C@@H](NC(=O)OCCO)CC2 have a reported RI (resistance index) of at least 6?
Yes

Form field: RI (resistance index) at least 6? Entry: COc1c(Br)c2c(c(OC)c1OC)-c1ccc(OC)c(=O)cc1[C@@H](NC(C)=O)CC2
Yes

Quick check: does CCOC(=O)N[C@H]1CCc2c(Br)c(OC)c(OC)c(OC)c2-c2ccc(SC)c(=O)cc21 have RI (resistance index) greater than or equal to 6?
Yes

Can N.N.[Cl][Pt][Cl] [Cisplatin, reference compound] be said to have RI (resistance index) at or above 6?
No

More entries:
State whether the measured RI (resistance index) reaches 6, counting equality as reaching it, for COc1c(Br)c2c(c(OC)c1OC)-c1ccc(SC)c(=O)cc1[C@@H](N)CC2
No

Is RI (resistance index) at least 6? Consider COc1c(Br)c2c(c(OC)c1OC)-c1ccc(SC)c(=O)cc1[C@@H](NC(=O)OCC(F)(F)F)CC2
No

Exam item: decide whether the reported RI (resistance index) for COc1c(Br)c2c(c(OC)c1OC)-c1ccc(SC)c(=O)cc1[C@@H](NC(=O)OCCOCCO)CC2 is at least 6.
Yes

Item COc1c(Br)c2c(c(OC)c1OC)-c1ccc(SC)c(=O)cc1[C@@H](NC(C)=O)CC2 with RI (resistance index) of 6 or above?
Yes

* * *

system: human lung adenocarcinoma (A549); assay: cells; assay type: cell-based; conditions: Homo sapiens; A549, 72 h, SRB, mean ± SD; read-out: IC50 A549
Measure: pIC50
Quick note: pIC50 values are minus log10 of concentrations in mol/L.

Let me know recorded pIC50 for COc1cccc2c1C(=O)c1c(O)c3c(c(O)c1C2=O)C[C@@](O)(C(=O)CO)C[C@@H]3O[C@H]1C[C@H](N)[C@H](O)[C@H](C)O1 [Doxorubicin, reference compound] , thanks.
6.59

* * *

test system: normal murine embryonic fibroblast cell line (BALB/3T3); experiment: Antiproliferative SRB assay, 72 h, normal cells BALB/3T3; type: cell-based; details: BALB/3T3, 72 h, mean ± SD
Measure: pIC50
Keep in mind that pIC50 stands for -log10 of concentration in molar terms.

Provide pIC50, recorded with normal murine embryonic fibroblast cell line (BALB/3T3), of N.N.[Cl][Pt][Cl] [Cisplatin, reference compound]
5.41

* * *

test system: doxorubicin-resistant human colon adenocarcinoma subline (LoVo/DX); assay: cells; assay type: cell-based; conditions: SI = IC50 BALB/3T3 / IC50 LoVo/DX
Measure: SI LoVo/DX

Solved entries (count: 3):
Supply measured SI LoVo/DX of CCCCOC(=O)N[C@H]1CCc2c(Br)c(OC)c(OC)c(OC)c2-c2ccc(SC)c(=O)cc21 in your reply.
1.60

For COc1c(Br)c2c(c(OC)c1OC)-c1ccc(OC)c(=O)cc1[C@@H](NC(C)=O)CC2 , write its SI LoVo/DX.
0.09

Look up and state reported SI LoVo/DX for COc1c(Br)c2c(c(OC)c1OC)-c1ccc(SC)c(=O)cc1[C@@H](NC(=O)OC(C)C)CC2
1.94

Turning now to a further compound:
Entry COc1c(Br)c2c(c(OC)c1OC)-c1ccc(SC)c(=O)cc1[C@@H](N)CC2 needs its SI LoVo/DX filled in; supply it.
1.80

* * *

system: human colon adenocarcinoma cell line (LoVo); assay: cells; type: cell-based; conditions: Homo sapiens, LoVo, 72 h, read-out: IC50 LoVo
Below, each entry is listed alongside its reported log10 IC50.
Lab note - IC50 converted to log10 from values in nM.

Tell us which log10 IC50 value is on record for COc1c(Br)c2c(c(OC)c1OC)-c1ccc(SC)c(=O)cc1[C@@H](NC(C)=O)CC2
1.15

Please give the documented log10 IC50 of CCOC(=O)N[C@H]1CCc2c(Br)c(OC)c(OC)c(OC)c2-c2ccc(SC)c(=O)cc21
1.04

Annotate the compound COc1c(Br)c2c(c(OC)c1OC)-c1ccc(SC)c(=O)cc1[C@@H](N)CC2 with its measured log10 IC50.
2.10

Annotate the compound CCCOC(=O)N[C@H]1CCc2c(Br)c(OC)c(OC)c(OC)c2-c2ccc(SC)c(=O)cc21 with its measured log10 IC50.
1.04

Give reported log10 IC50 value for CCCCOC(=O)N[C@H]1CCc2c(Br)c(OC)c(OC)c(OC)c2-c2ccc(SC)c(=O)cc21
1.79

Identify measured log10 IC50 associated with COc1c(Br)c2c(c(OC)c1OC)-c1ccc(OC)c(=O)cc1[C@@H](NC(C)=O)CC2
1.92

Supply measured log10 IC50 of COc1c(Br)c2c(c(OC)c1OC)-c1ccc(SC)c(=O)cc1[C@@H](NC(=O)OCCOCCO)CC2 in your reply.
2.45

Where these numbers come from: paper PMC6262455
